Tested on: RARa:RXR (NR concentration 270 nM, RXRa partner concentration 90 nM)
Assay: PBM binding z-score (relative to random genomic background probes); higher = stronger binding; sequences stand for … in GC…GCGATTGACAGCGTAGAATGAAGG
Our labelling divides records by PBM binding z-score into ranges: low: < 2; mid: ≥ 2 and < 5; high: ≥ 5

seq_string=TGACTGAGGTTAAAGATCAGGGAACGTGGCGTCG discrete_label=mid
seq_string=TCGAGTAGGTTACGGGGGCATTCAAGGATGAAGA discrete_label=mid
seq_string=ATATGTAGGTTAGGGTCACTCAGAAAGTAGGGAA discrete_label=mid
seq_string=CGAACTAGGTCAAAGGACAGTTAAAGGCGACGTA discrete_label=mid
seq_string=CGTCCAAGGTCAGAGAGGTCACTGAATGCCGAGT discrete_label=high
seq_string=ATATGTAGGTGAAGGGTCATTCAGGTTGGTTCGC discrete_label=high
seq_string=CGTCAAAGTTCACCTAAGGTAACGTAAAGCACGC discrete_label=mid
seq_string=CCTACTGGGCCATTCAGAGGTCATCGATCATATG discrete_label=high
seq_string=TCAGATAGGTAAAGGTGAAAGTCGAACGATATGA discrete_label=low
seq_string=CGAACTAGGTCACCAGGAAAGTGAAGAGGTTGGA discrete_label=mid
seq_string=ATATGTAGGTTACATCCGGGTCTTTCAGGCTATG discrete_label=low
seq_string=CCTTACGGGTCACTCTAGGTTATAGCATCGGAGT discrete_label=mid
